- System: MOLT-4
- procedureText: NCI tumour cell line growth inhibition, 48 h
The source made the active and inactive calls. Rule as the data show it: active = GI50 up to about 1.1 µM and inactive = higher.
In this exercise, the only acceptable responses are YES = active, NO = inactive

Below, 3 compounds whose answers are already recorded.
{"columns": ["compound", "group"],
 "data": [
  ["COc1cc(-c2oc3c(OC)c(O)c(OC)c(O)c3c(=O)c2OC)cc(OC)c1OC", "NO"],
  ["C[C@H](CSC(=O)c1ccccc1)C(=O)N1c2ccccc2C[C@H]1C(=O)O", "NO"],
  ["COc1ccc(N2/C(=N/c3ccccc3)SC(=N/S(=O)(=O)c3ccccc3)/C2=N\\S(=O)(=O)c2ccccc2)cc1", "NO"]
]}

Query :: # outcome recorded in this test, key = `COc1ccc(-c2cc(=O)c3ccccc3o2)cc1N`
Result :: NO

Query :: Answer briefly: the call reported for COc1cccc2c1C(CO)N1C(C#N)C3CC(C(=O)O)C(C1C2)N3C (stereo not given) in this assay.
Result :: NO

----------
- Tested on: K562
- procedureText: NCI tumour cell line growth inhibition, 48 h
Active and inactive are the calls of the source. No stated cut-off is given here; in the data, active = GI50 up to about 1.1 µM and inactive = higher.
measure: GI50

The following compounds have reported results that may help.
{"columns": ["compound", "testedSystem", "GI50"],
 "data": [
  ["CCOC(=O)C(=O)Nc1nc2ccc(OC)cc2s1", "K562", "> 100 µM (inactive)"],
  ["N=C(N)NCCCC(NC(=O)OCCCCn1ccc(N)nc1=O)C(=O)O (stereo unspecified)", "K562", "> 100 µM (inactive)"],
  ["C=C(CCC/C(C)=C/C=C/[C@]1(C)CCCc2ccoc21)CC(=O)O", "K562", "84.3 µM (inactive)"],
  ["CCc1cccc(CC)c1NC(=O)C(=O)Cc1nc2ccccc2o1", "K562", "> 100 µM (inactive)"],
  ["N#Cc1nc(CCc2nc(C#N)c(N)o2)oc1N", "K562", "> 10 µM (inactive)"]
]}

Recorded result, `COC(=O)c1sc2nc(Nc3ccccc3)/c(=N\c3ccccc3)sc2c1C` , GI50: > 100 µM (inactive)

Measured GI50 of O=C(/N=C1/NCC(CN2CCN(c3ccccc3)CC2)O1)Nc1ccccc1 (stereo unspecified) : > 100 µM (inactive)

Entry `O=C(COc1ccc(OCC(=O)N2C(=O)CC(=O)N(c3ccc(Cl)cc3)C2=S)cc1)N1C(=O)CC(=O)N(c2ccc(Cl)cc2)C1=S` — recorded GI50 = 19.4 µM (inactive)

Recorded GI50 (compound CC(=O)OC(C(=O)NNC(=O)OC(C)(C)C)c1ccccc1 (stereo unspecified) ): > 100 µM (inactive)

get_value(item= Oc1ccc(O)c(CNc2ccc(C(O)C(F)(F)F)cc2)c1 (stereo unspecified) , readout=GI50) returns 11.9 µM (inactive)

The reported value for `C/C(=N\NC(N)=S)c1cccs1.OB(O)c1ccccc1` in terms of GI50 is > 100 µM (inactive)

----------
- Test system: UACC-257
- procedureText: NCI tumour cell line growth inhibition, 48 h
Activity calls are given as the source filed them. Cut-off read from the data, not from the text of the source: active = GI50 up to about 1.1 µM and inactive = higher.
measure: GI50

Below: 4 molecules and their reported GI50.
{"columns": ["molecule", "value"],
 "data": [
  ["N#Cc1nc(CCc2nc(C#N)c(N)o2)oc1N", "> 10 µM (inactive)"],
  ["CN1C[C@H]2[C@@H](C1=O)[C@H](c1ccccc1)ON2C", "> 100 µM (inactive)"],
  ["Oc1ccc(O)c(CNc2ccc(C(O)C(F)(F)F)cc2)c1 (stereo unspecified)", "18.4 µM (inactive)"],
  ["COc1cc(/C=C\\c2ccncc2)cc(OC)c1OC", "> 100 µM (inactive)"]
]}

The value of GI50 recorded for OCC(O)C(O)C(O)c1nn(-c2ccc(Cl)cc2)c2nc3cc(Cl)c(Cl)cc3nc12 (stereo unspecified) when tested on UACC-257 reads 86.3 µM (inactive)

# lookup: C=C(Cl)C(Cl)(CBr)CCC(Cl)C(C)(C)Cl (stereo unspecified) on UACC-257, GI50 = 1.57 µM (inactive)

Entry `Cc1csc(NNC(N)=O)n1` , tested on UACC-257, has a reported GI50 of > 100 µM (inactive)

Record for `COc1ccc2c3ccc4c(c3n(C)c2c1)C(=O)c1ccccc1C4=O` under target or system UACC-257: GI50 reported as > 100 µM (inactive)

UACC-257 assay, molecule `c1ccc(Cc2nc(Cc3n[nH]c(Cc4ccccc4)n3)n[nH]2)cc1` , recorded GI50 = > 100 µM (inactive)

Entry `Cc1cc(C(=O)N2CCN(Cc3ccccc3)CC2)c(C)o1` ; assay system UACC-257; GI50 recorded at > 100 µM (inactive)

The reported GI50 value, UACC-257, for `CC(C)c1ccc(C(c2ccc(OCC(=O)O)cc2)c2ccc(C(C)C)cc(=O)c2O)c(O)c(=O)c1` reads 5.6 µM (inactive)

----------
- Test system: EKVX
- procedureText: NCI tumour cell line growth inhibition, 48 h
The source made the active and inactive calls. Rule as the data show it: active = GI50 up to about 1.1 µM and inactive = higher.
measure: GI50

Answered examples (4):
{"columns": ["compound", "value"],
 "data": [
  ["CC(=O)O[C@H]1[C@@H](OC2CCCC2(c2ccccc2)c2ccccc2)O[N+]([O-])=C[C@@]12COCc1cc3c(cc12)OCO3 (stereo not given in full)", "3.02 µM (inactive)"],
  ["COc1ccc2c3c(c(=O)n(C)c2c1OC)C=CC(C)(C)O3", "23.9 µM (inactive)"],
  ["O=C1OC(c2ccco2)=N/C1=C\\c1cccc([N+](=O)[O-])c1", "> 100 µM (inactive)"],
  ["c1ccc2c(c1)c1c3n2-c2cc(on2)C3CCC1 (stereo not given)", "> 100 µM (inactive)"]
]}

Note: attention shifts to another entry.
GI50 in this record for `Clc1ccc(-c2cc3nc4ccccc4nc3o2)cc1` : > 100 µM (inactive)

----------
- System: UACC-62
- procedureText: NCI tumour cell line growth inhibition, 48 h
Calls of active or inactive are those of the source. No stated cut-off is given here; in the data, active = GI50 up to about 1.1 µM and inactive = higher.
measure: GI50

{"columns": ["compound", "testedSystem", "GI50"],
 "data": [
  ["CCCCCCCCC[C@@H]1C[C@H](O)[C@H](Cc2ccccc2)N1C(=O)OC(C)(C)C", "UACC-62", "17 µM (inactive)"]
]}

Notebook: Cc1ccc(OC2CC(n3cnc4ncnc(Cl)c43)OC2Oc2ccc(C)cc2)cc1 (stereo not given) , GI50 read as 14.1 µM (inactive)

Recorded result, `CCc1ccccc1NC(=O)/C(CC(=O)c1c(C)[n+]([O-])c2ccccc2[n+]1[O-])=N\NS(=O)(=O)c1ccc(C)cc1` , GI50: 18.9 µM (inactive)

// GI50 lookup, compound = CC(O)CNC(=O)Nc1c(C(F)(F)F)cc(-c2ccccc2)[nH]c1=O (stereo not given) , result: > 100 µM (inactive)

GI50 reported for this compound `CC1=CC(=O)/C(=C/NC(=S)Nc2ccc(S(N)(=O)=O)cc2)C(=O)O1` : > 100 µM (inactive)

----------
- Tested on: MCF7
- procedureText: NCI tumour cell line growth inhibition, 48 h
Activity calls are given as the source filed them. Cut-off read from the data, not from the text of the source: active = GI50 up to about 1.1 µM and inactive = higher.
The categories you may choose from are Yes = active, No = inactive

Observe how each entry below is paired with its result.
{"columns": ["molecule", "testedSystem", "group"],
 "data": [
  ["Cc1cccc(/C(Br)=C2/OC(=O)c3ccccc32)c1", "MCF7", "No"],
  ["O=c1c2c3c(sc2nc2n1N=CN(c1ccc(Cl)cc1)C2)CCCC3", "MCF7", "No"],
  ["CCOc1ccc2c(c1)c(=O)c1c(NCCN(CC)CC)ccc3nnn2c31", "MCF7", "No"],
  ["C(=C\\c1cccc(/C=C/c2ccccn2)n1)/c1ccccn1", "MCF7", "No"],
  ["CN(CCO)CCC1COc2ccccc2O1 (stereo not given)", "MCF7", "No"]
]}

Query :: Short answer needed: outcome of this test for `Cc1cccc2nc3cccc(C(=O)NCCC[N+](C)(CCCNC(=O)c4cccc5nc6cccc(C)c6nc45)Cc4ccc([N+](=O)[O-])n4C)c3nc12` ?
Result :: Yes

Query :: Called result for Cc1ccc(S(=O)(=O)NC(=O)NC(Cc2ccccc2)C(=O)O)cc1 (stereo not given)
Result :: No

Query :: Recorded test outcome, item `CCOP(=O)(OCC)/C(C#N)=C/c1cccn1Cc1ccccc1`
Result :: No

Query :: Could you check what this test reported for COc1cc(C2c3[nH]c4ccccc4c3[C@@H](Nc3ccc(F)cc3)[C@H]3COC(=O)N23)cc(OC)c1O (stereo not given in full) ?
Result :: Yes

Query :: Called result for `O=C1OC(c2ccco2)=N/C1=C\c1cccc([N+](=O)[O-])c1`
Result :: No

----------
- Test system: SK-OV-3
- procedureText: NCI tumour cell line growth inhibition, 48 h
Activity calls are given as the source filed them. No stated cut-off is given here; in the data, active = GI50 up to about 1.1 µM and inactive = higher.
measure: GI50

# annotated cases, reported GI50 shown
{"columns": ["molecule", "testedSystem", "GI50"],
 "data": [
  ["Cc1ccc2c(C3Cc4ccccc4N3C(=O)/C=C\\C(=O)O)c(C)[nH]c2c1 (stereo not given)", "SK-OV-3", "> 100 µM (inactive)"],
  ["CC(=O)Oc1ccccc1C(=O)O", "SK-OV-3", "> 100 µM (inactive)"],
  ["Cc1nc2c(Cl)cc(Cl)cc2c(Cl)c1CCCl", "SK-OV-3", "> 100 µM (inactive)"],
  ["C=C(Cl)C(Cl)(CBr)CCC(Cl)C(C)(C)Cl (stereo not given)", "SK-OV-3", "25.8 µM (inactive)"]
]}

Now look at this entry.
Entry `O=C1C[C@@H](C(=O)OCc2ccccc2)NC(=O)C[C@@H](C(=O)OCc2ccccc2)NC(=O)C[C@@H](C(=O)OCc2ccccc2)N1` ; GI50 = 20.8 µM (inactive)
